- testedTarget: TNFα (Homo sapiens, UniProt P01375)
- Sequence (P01375 77-233 limits assumed): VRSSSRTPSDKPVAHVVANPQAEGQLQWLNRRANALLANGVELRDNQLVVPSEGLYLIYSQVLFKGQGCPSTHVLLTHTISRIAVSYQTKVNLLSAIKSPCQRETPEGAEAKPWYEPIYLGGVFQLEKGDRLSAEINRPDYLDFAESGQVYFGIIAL
- assayName: TNF-Induced HEK-Blue Assay
- Format: cell-based
- cond: HEK-Blue-CD40L cells, NF-kB-driven secreted alkaline phosphatase reporter; TNFα 0.5 ng/ml; 18 h; read-out: TNF induced HEK-Blue assay IC50 value
pIC50: −log10 of the molar value. Starred links: 1 amine or outer side, 2 acyl side, 3 side chain; linkers in the order of their positions; H or OH if unused. Positions of bridges follow the written chain, without caps; N, C: chain ends. Non-standard residues stand in square brackets, D forms with d. Residues, ends and D or L forms follow the SMILES beside them. X40 = O=C(O)C1CCCCC1C(=O)Nc1ccc(-c2ccc(C[C@H](N[*:1])C(=O)[*:2])cc2)cc1; Bip = N[C@@H](Cc1ccc(-c2ccccc2)cc1)C(=O)O; Cha = N[C@@H](CC1CCCCC1)C(=O)O; Sar = CNCC(=O)O
parameterMeasured: pIC50

Answer with pIC50 of CC[C@H](C)[C@@H]1NC(=O)[C@@H](CCCNC(=N)N)NC(=O)[C@H](CC(=O)O)NC(=O)[C@H](Cc2cnc[nH]2)NC(=O)CN(C)C(=O)[C@H](Cc2ccc(-c3ccc(NC(=O)C4CCCCC4C(=O)O)cc3)cc2)NC(=O)[C@H](Cc2ccc(-c3ccccc3)cc2)NC(=O)[C@H](CC2CCCCC2)NC(=O)CSC[C@@H](C(=O)NCC(N)=O)NC(=O)[C@H](CC(C)C)NC(=O)[C@H](Cc2cnc[nH]2)NC(=O)[C@H](C(C)C)NC(=O)[C@@H]2CCCN2C1=O (stereo partly shown) [Example 318] ({CH2CO}-[Cha][Bip][X40][Sar]HD[dR]IPVHLCG-NH2; thioether N-13) measured for TNFα (Homo sapiens, UniProt P01375).
6.70 to 7.30

----------
- testedTarget: TNFα (Homo sapiens, UniProt P01375)
- assayName: TNF-Induced HEK-Blue Assay
- Assay type: cell-based
- cond: HEK-Blue-CD40L cells, NF-kB-driven secreted alkaline phosphatase reporter; TNFα 0.5 ng/ml; 18 h; read-out: TNF induced HEK-Blue assay IC50 value
Positions of bridges follow the written chain, without caps; N, C: chain ends. Non-standard residues stand in square brackets, D forms with d. Residues, ends and D or L forms follow the SMILES beside them. Bip(4'-COOH) = N[C@@H](Cc1ccc(-c2ccc(C(=O)O)cc2)cc1)C(=O)O; Ala(morpholin-4-yl) = N[C@@H](CN1CCOCC1)C(=O)O; Bip = N[C@@H](Cc1ccc(-c2ccccc2)cc1)C(=O)O; 2Pal = N[C@@H](Cc1ccccn1)C(=O)O; Sar = CNCC(=O)O
parameterMeasured: IC50

CC(C)C[C@@H]1NC(=O)[C@H](CCCNC(=N)N)NC(=O)[C@H](C(C)C)NC(=O)[C@@H]2CCCN2C(=O)[C@H](C(C)C)NC(=O)[C@H](CCCNC(=N)N)NC(=O)[C@H](CC(=O)O)NC(=O)[C@@H]2CCCN2C(=O)CN(C)C(=O)[C@H](Cc2ccc(-c3ccccc3)cc2)NC(=O)[C@H](Cc2ccc(-c3ccccc3)cc2)NC(=O)[C@H](Cc2ccccn2)NC(=O)CSC[C@@H](C(=O)NCC(N)=O)NC1=O [Example 30] ({CH2CO}-[2Pal][Bip][Bip][Sar]PDRVPVRLCG-NH2; thioether N-13)    200 to 2000 nM

Answer with IC50 of CC(C)C[C@@H]1NC(=O)[C@H](Cc2ccc(O)cc2)NC(=O)[C@H](C(C)C)NC(=O)[C@@H]2CCCN2C(=O)[C@H](C(C)C)NC(=O)[C@H](CCCNC(=N)N)NC(=O)[C@H](CC(=O)O)NC(=O)[C@@H]2CCCN2C(=O)CN(C)C(=O)[C@H](Cc2ccc(-c3ccccc3)cc2)NC(=O)[C@H](Cc2ccc(-c3ccc(C(=O)O)cc3)cc2)NC(=O)[C@H](CN2CCOCC2)NC(=O)CSC[C@@H](C(=O)NCC(N)=O)NC1=O [Example 124] ({CH2CO}-[Ala(morpholin-4-yl)][Bip(4'-COOH)][Bip][Sar]PDRVPVYLCG-NH2; thioether N-13) measured for TNFα (Homo sapiens, UniProt P01375).
50 to 200 nM

----------
- testedTarget: TNFα (Homo sapiens)
- assayName: TNF-Induced HEK-Blue Assay
- Assay type: cell-based
- cond: HEK-Blue-CD40L cells, NF-kB-driven secreted alkaline phosphatase reporter; TNFα 0.5 ng/ml; 18 h; read-out: TNF induced HEK-Blue assay IC50 value
Positions of bridges follow the written chain, without caps; N, C: chain ends. Non-standard residues stand in square brackets, D forms with d. Residues, ends and D or L forms follow the SMILES beside them. Ala(morpholin-4-yl) = N[C@@H](CN1CCOCC1)C(=O)O; Bip = N[C@@H](Cc1ccc(-c2ccccc2)cc1)C(=O)O; Phe(4-NH2) = Nc1ccc(C[C@H](N)C(=O)O)cc1; Val(3-OH) = CC(C)(O)[C@H](N)C(=O)O; Aze = O=C(O)[C@@H]1CCN1; Sar = CNCC(=O)O
Entries annotated with measured IC50

Determine from records and report IC50 for CC(C)C[C@@H]1NC(=O)[C@H](CCCNC(=N)N)NC(=O)[C@H](C(C)C)NC(=O)[C@@H]2CCN2C(=O)[C@H](C(C)C)NC(=O)[C@H](CCCNC(=N)N)NC(=O)[C@H](CC(=O)O)NC(=O)[C@@H]2CCCN2C(=O)CN(C)C(=O)[C@H](Cc2ccc(-c3ccccc3)cc2)NC(=O)[C@H](Cc2ccc(-c3ccccc3)cc2)NC(=O)[C@H](CN2CCOCC2)NC(=O)CSC[C@@H](C(=O)NCC(N)=O)NC1=O [Example 72] ({CH2CO}-[Ala(morpholin-4-yl)][Bip][Bip][Sar]PDRV[Aze]VRLCG-NH2; thioether N-13)
50 to 200 nM

Determine from records and report IC50 for CC(C)C[C@@H]1NC(=O)[C@H](CCCNC(=N)N)NC(=O)[C@H](C(C)C)NC(=O)[C@@H]2CCCN2C(=O)[C@H](Cc2ccc(N)cc2)NC(=O)[C@H](CCCNC(=N)N)NC(=O)[C@H](CC(=O)O)NC(=O)[C@@H]2CCCN2C(=O)CN(C)C(=O)[C@H](Cc2ccc(-c3ccccc3)cc2)NC(=O)[C@H](Cc2ccc(-c3ccccc3)cc2)NC(=O)[C@H](C(C)(C)O)NC(=O)CSC[C@@H](C(=O)NCC(N)=O)NC1=O [Example 61] ({CH2CO}-[Val(3-OH)][Bip][Bip][Sar]PDR[Phe(4-NH2)]PVRLCG-NH2; thioether N-13)
200 to 2000 nM

----------
- testedTarget: TNFα (Homo sapiens, UniProt P01375)
- assayName: TNF-Induced HEK-Blue Assay
- Assay type: cell-based
- cond: HEK-Blue-CD40L cells, NF-kB-driven secreted alkaline phosphatase reporter; TNFα 0.5 ng/ml; 18 h; read-out: TNF induced HEK-Blue assay IC50 value
pIC50: −log10 of the molar value. Positions of bridges follow the written chain, without caps; N, C: chain ends. Non-standard residues stand in square brackets, D forms with d. Residues, ends and D or L forms follow the SMILES beside them. Bip(4'-NHAc) = CC(=O)Nc1ccc(-c2ccc(C[C@H](N)C(=O)O)cc2)cc1; Ala(morpholin-4-yl) = N[C@@H](CN1CCOCC1)C(=O)O; Bip = N[C@@H](Cc1ccc(-c2ccccc2)cc1)C(=O)O; Chg = N[C@H](C(=O)O)C1CCCCC1; Sar = CNCC(=O)O
parameterMeasured: pIC50

CC(=O)Nc1ccc(-c2ccc(C[C@@H]3NC(=O)[C@H](Cc4ccc(-c5ccccc5)cc4)NC(=O)[C@H](CN4CCOCC4)NC(=O)CSC[C@@H](C(=O)NCC(N)=O)NC(=O)[C@H](C(C)C)NC(=O)[C@H](CCCNC(=N)N)NC(=O)[C@H](C(C)C)NC(=O)[C@@H]4CCCN4C(=O)[C@H](C(C)C)NC(=O)[C@H](CCCNC(=N)N)NC(=O)[C@H](CC(=O)O)NC(=O)[C@@H]4CCCN4C(=O)CN(C)C3=O)cc2)cc1 [Example 89] ({CH2CO}-[Ala(morpholin-4-yl)][Bip][Bip(4'-NHAc)][Sar]PDRVPVRVCG-NH2; thioether N-13)    6.70 to 7.30

Answer with pIC50 of CC(C)C[C@@H]1NC(=O)[C@H](CCCNC(=N)N)NC(=O)[C@H](C2CCCCC2)NC(=O)[C@@H]2CCCN2C(=O)[C@H](C(C)C)NC(=O)[C@@H](CCCNC(=N)N)NC(=O)[C@H](CC(=O)O)NC(=O)[C@@H]2CCCN2C(=O)CN(C)C(=O)[C@H](Cc2ccc(-c3ccccc3)cc2)NC(=O)[C@H](Cc2ccc(-c3ccccc3)cc2)NC(=O)[C@H](CN2CCOCC2)NC(=O)CSC[C@@H](C(=O)NCC(N)=O)NC1=O [Example 206] ({CH2CO}-[Ala(morpholin-4-yl)][Bip][Bip][Sar]PD[dR]VP[Chg]RLCG-NH2; thioether N-13) measured for TNFα (Homo sapiens, UniProt P01375).
> 7.30
